MEASUREMENT_DESCRIPTION: Pharmacokinetics and bioavailability in male mice after a single dose
Format: in vivo
CONDITION_LABEL: mouse, plasma, oral, 10 mg/kg
Measured bioavailability accompanies every entry in the list below.
MEASURE_NAME: bioavailability (%)

molecule="CC(C)c1cnc(-c2cc(Cl)ccc2F)cc1Nc1ccncc1C(=O)NC[C@H](C)O (single isomer, unassigned)" value_reported=88
molecule="C=C(C)c1cnc(-c2cc(Cl)ccc2F)cc1Nc1ccncc1C(=O)NC[C@H](C)O (single isomer, unassigned)" value_reported=82
molecule=CC(C)c1cnc(-c2cc(Cl)ccc2F)cc1Nc1ccncc1C(=O)NC(CO)CO value_reported=86.6
molecule=CC(=O)NCCNC(=O)c1cnccc1Nc1cc(-c2cc(Cl)ccc2F)ncc1C(C)C value_reported=32.5
molecule="CC(C)c1cnc(-c2cc(Cl)ccc2F)cc1Nc1ncncc1C(=O)NC[C@H](C)O (single isomer, unassigned) [12a]" value_reported=78.3
molecule=C=C(C)c1cnc(-c2cc(Cl)ccc2F)cc1Nc1ccncc1C(=O)NC(C)(C)CO value_reported=36.9
molecule=C=C(C)c1cnc(-c2cc(Cl)ccc2F)cc1Nc1ccncc1C(=O)NCCO value_reported=26.9
molecule="C[C@H](O)CNC(=O)c1cnccc1Nc1cc(-c2cc(Cl)ccc2F)ncc1N(C)C (single isomer, unassigned) [16a]" value_reported=34.1
